- Tested on: A549 NSCLC
- method_notes: NCI tumour cell line growth inhibition, 48 h
measure: TGI

Prompt: Entry CC1=CC(=O)/C(=C/n2c(=S)[nH]c3cc(C)ccc32)C(=O)O1 : reported TGI = ?
Response: > 100 µM

Prompt: Repeat with CCC(=O)N1C(=O)C(CC)(CC)C(=O)N1C(=O)CC
Response: > 100 µM

Prompt: Consider next the compound CC(=O)c1ccc2c3c1O[C@H]1c4[nH]c5ccccc5c4C[C@@]4(O)[C@@H](C2)N(CC2CC2)CC[C@]314 in the same way.
Response: 21.3 µM

Prompt: Then what about the compound OC1(c2ccc(Cl)cc2)c2c(c3ccccc3c3ccccc23)C2=NCCN21 (centres undefined) ?
Response: 59 µM

Prompt: What about COc1cccc([C@@H]2CC(=O)c3cc4c(cc3N2)OCO4)c1 ?
Response: > 100 µM

Prompt: Another compound to check: O=C1CCCC(O)=C1SC1=C(O)CCCC1=O
Response: > 100 µM

Prompt: Same for C=C(C)[C@@H]1CC[C@]2(C(=O)O)CC[C@]3(C)[C@H](CC[C@@H]4[C@@]5(C)C/C(=C/c6cccc(I)c6)C(=O)C(C)(C)[C@@H]5CC[C@]43C)[C@@H]12
Response: 6.31 µM

Prompt: What about O=C(c1nn(-c2ccc(Cl)cc2)cc1O)n1nc(C(F)(F)F)cc1-c1ccccc1 ?
Response: > 100 µM

Prompt: COc1cc2[nH]c(=O)c3cc(C)cc4c(Cl)nc(c1OC)c2c43 ?
Response: > 100 µM

###

For each of the compounds below, state its TGI.
- Tested on: K-562 leukemia
- method_notes: NCI tumour cell line growth inhibition, 48 h

Prompt: Param item = OCCn1cc(-c2cnc3nnn(Cc4ccc5ncccc5c4)c3n2)cn1 ; retrieve measured TGI.
Response: > 100 µM

Prompt: Here is the next compound: CCOC(=O)C1=C(c2ccccc2)C12N(Cc1ccccc1)C(=O)C2(c1ccccc1)c1ccccc1 (stereo not given)
Response: > 100 µM

Prompt: Query CCOC(=O)C(=O)Nc1ccccc1OCC next
Response: > 100 µM

Prompt: Okay, and O=C1C(Br)=C(Br)C(=O)c2ccccc21 ?
Response: > 100 µM

Prompt: Can you handle C=CCOCn1ccc(N)nc1=O next?
Response: > 100 µM

Prompt: Moving on to the next compound: CC(C)=CC(=O)N[C@@H]1CC2CCC3C(CC[C@@]4(C)C3CC[C@@H]4C(C)N(C)C)[C@@]2(C)C[C@@H]1O (stereo not given in full)
Response: 8.49 µM

Prompt: Try O=C(Cn1c(C(=O)c2ccc(Cl)cc2)nc(-c2ccccc2)c1-c1ccccc1)c1ccc(Cl)cc1 next.
Response: > 100 µM

Prompt: // query: COc1ccc(N2C(=O)C3c4[nH]c5ccccc5c4C4c5ccccc5CC4C3C2=O)cc1 (stereo not given)
Response: > 100 µM

Prompt: How about this compound: O=C(Oc1ccc2c(-c3ccccc3)c(C(=O)Nc3ccc(Cl)cc3)c(=O)oc2c1)c1ccccc1
Response: > 100 µM

Prompt: And for OCC(O)COc1c(Cl)cc(Cl)cc1Cl (stereo not given) ?
Response: > 66.1 µM

###

Please go through the items and note down their TGI.
- Test system: COLO 205 colon
- method_notes: NCI tumour cell line growth inhibition, 48 h

Prompt: TGI lookup needed for COc1cc(-c2nc3cc(Cl)c(Cl)cc3[nH]2)ccc1OCC(=O)N=Nc1c(O)[nH]c2ccc(Cl)cc12 , thanks.
Response: 1.22 µM

Prompt: Try this compound too: CCOC(OCC)C(CC)[Se]c1ccccc1 (stereo not given)
Response: > 100 µM

Prompt: Then this compound: O=C(c1ccccc1O)c1cc(-c2ncc3c(=O)c4ccccc4oc3n2)c(-c2ccccc2O)[nH]c1=O
Response: > 100 µM

Prompt: Now the compound CC(=O)c1ccc2c3c1O[C@H]1c4[nH]c5ccccc5c4C[C@@]4(O)[C@@H](C2)N(CC2CC2)CC[C@]314
Response: 30.8 µM

Prompt: Would you mind doing COc1cccc([C@@H]2CC(=O)c3cc4c(cc3N2)OCO4)c1 as well?
Response: > 100 µM

Prompt: Next up: CC(=O)OCC1OC(n2c(N)c(C#N)c(-c3cccc(Cl)c3)c(C#N)c2=S)C(OC(C)=O)C(OC(C)=O)C1OC(C)=O (stereo not given)
Response: 29.7 µM

Prompt: Param item: Cc1cccc(C(C)C)c1NC(=O)CCl
Response: > 100 µM

Prompt: Try this compound too: CN(C)C(=S)/N=c1\ss/c(=N\C(=S)N(C)C)n1Cc1ccco1
Response: > 100 µM

Prompt: Also need Cc1cn([C@H]2C[C@H](O)[C@@H](CO)O2)c(=O)nc1N , thanks.
Response: > 100 µM

Prompt: How about OCC(O)COc1c(Cl)cc(Cl)cc1Cl (stereo not given) ?
Response: > 100 µM
